target: PI3Kα (Homo sapiens, UniProt P42336); assay: PI3K kinase activity inhibition assay; type: biochemical; conditions: Kinase-Glo Plus ATP detection, read-out: IC50 against PI3K
Sequence (P42336 whole entry, species assumed): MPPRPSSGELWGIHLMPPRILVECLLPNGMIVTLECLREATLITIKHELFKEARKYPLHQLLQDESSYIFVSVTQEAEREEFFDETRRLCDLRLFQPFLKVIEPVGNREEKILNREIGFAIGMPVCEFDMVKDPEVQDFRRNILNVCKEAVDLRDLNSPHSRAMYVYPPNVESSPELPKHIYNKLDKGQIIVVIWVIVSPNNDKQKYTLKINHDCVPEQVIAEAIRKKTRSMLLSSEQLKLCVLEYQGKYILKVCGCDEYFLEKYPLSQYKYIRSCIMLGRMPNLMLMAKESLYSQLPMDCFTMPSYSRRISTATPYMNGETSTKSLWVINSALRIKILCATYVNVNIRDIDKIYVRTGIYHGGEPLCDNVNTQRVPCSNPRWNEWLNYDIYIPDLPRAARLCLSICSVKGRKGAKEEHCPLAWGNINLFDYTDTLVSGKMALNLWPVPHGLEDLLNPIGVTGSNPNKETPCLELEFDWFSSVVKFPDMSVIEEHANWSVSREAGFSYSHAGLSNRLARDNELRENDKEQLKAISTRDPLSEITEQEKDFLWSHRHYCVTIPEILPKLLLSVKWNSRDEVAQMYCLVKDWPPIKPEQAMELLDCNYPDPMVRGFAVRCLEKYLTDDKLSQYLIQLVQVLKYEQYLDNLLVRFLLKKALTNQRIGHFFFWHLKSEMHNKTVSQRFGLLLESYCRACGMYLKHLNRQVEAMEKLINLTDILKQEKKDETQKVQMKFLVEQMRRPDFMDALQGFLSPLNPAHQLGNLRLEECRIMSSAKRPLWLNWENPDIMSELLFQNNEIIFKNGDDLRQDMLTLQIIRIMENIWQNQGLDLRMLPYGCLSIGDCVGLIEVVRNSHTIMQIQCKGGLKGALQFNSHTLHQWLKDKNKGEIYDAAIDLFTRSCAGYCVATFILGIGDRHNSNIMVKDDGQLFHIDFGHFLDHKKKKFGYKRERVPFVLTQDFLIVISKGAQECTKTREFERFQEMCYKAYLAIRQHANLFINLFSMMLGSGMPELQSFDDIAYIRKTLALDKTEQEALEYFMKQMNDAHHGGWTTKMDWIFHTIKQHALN
Sequence (P27986 whole entry partner, species assumed): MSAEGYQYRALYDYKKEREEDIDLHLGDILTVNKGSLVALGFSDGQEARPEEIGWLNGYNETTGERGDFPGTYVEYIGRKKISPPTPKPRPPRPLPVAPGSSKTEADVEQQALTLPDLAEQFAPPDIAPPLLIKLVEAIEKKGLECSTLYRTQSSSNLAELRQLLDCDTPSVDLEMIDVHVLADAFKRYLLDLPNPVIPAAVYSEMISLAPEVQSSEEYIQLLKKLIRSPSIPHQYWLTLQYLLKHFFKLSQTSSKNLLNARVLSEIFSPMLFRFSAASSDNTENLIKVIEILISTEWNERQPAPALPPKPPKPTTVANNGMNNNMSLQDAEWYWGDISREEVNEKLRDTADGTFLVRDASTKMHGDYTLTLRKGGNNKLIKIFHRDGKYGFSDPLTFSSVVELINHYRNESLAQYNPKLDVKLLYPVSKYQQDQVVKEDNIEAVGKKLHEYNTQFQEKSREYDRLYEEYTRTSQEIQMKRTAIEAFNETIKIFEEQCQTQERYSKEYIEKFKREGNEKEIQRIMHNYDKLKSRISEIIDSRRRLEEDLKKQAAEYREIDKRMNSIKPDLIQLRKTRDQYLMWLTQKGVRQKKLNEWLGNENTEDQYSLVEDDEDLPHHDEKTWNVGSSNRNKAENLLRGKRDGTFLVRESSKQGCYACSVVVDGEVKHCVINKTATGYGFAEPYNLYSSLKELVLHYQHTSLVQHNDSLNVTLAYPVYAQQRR
measuredQuantity: IC50

Study these solved cases before continuing.
>>> result("C[C@H]1CN(c2nc3c(N4CCOCC4)nc(-c4cnc(N)nc4)nc3n2CC(F)(F)F)CCN1C=O")
"< 10 nM"
>>> result("CC(C)Cn1c(N2CCN(C(=O)C[C@H](C)O)CC2)nc2c(N3CCOC[C@@H]3C)nc(-c3cnc(N)nc3)nc21")
"< 10 nM"
>>> result("CN(C)CC(=O)N1CCN(c2nc3c(N4CCOCC4)nc(-c4cnc(N)nc4)nc3n2CC2CC2)CC1")
"10 to 20 nM"
>>> result("Cc1nc(N)ncc1-c1nc(N2CCOCC2)c2nc(N3CC[C@@H](NS(C)(=O)=O)C3)n(CC3CC3)c2n1")
"< 10 nM"

Please look up its IC50: C[C@@H]1CN(c2nc3c(N4CCOCC4)nc(-c4cnc(N)nc4)nc3n2CC(F)(F)F)CCN1C=O
< 10 nM

Please give the result for C[C@H]1CN(c2nc3c(N4CCOCC4)nc(-c4cnc(N)nc4)nc3n2CC(F)(F)F)CCN1C(=O)CO too.
< 10 nM

Please give the result for CNc1ncc(-c2nc(N3CCOCC3)c3nc(N4CCN(S(C)(=O)=O)CC4)n(CC(F)(F)F)c3n2)cn1 too.
10 to 20 nM

----------
The entries below come with measured GI50 values attached.
test system: human endometrial cancer cell strain AN3CA; test: Cell growth inhibition test (MTT), AN3CA; assay type: cell-based; conditions: AN3-CA, 72 h, 3 days culture, read-out: concentration exhibiting anti-cell effect (GI50)

Study these solved cases before continuing.
>>> result("CNc1ncc(-c2nc(N3CCOCC3)c3nc(N4CCN(C(C)=O)CC4)n(CC(F)(F)F)c3n2)cn1 [Example 134]")
"≤ 5 µM"
>>> result("C[C@H](O)C(=O)N1CCN(c2nc3c(N4CCOCC4)nc(-c4cnc(N)nc4)nc3n2CC(F)(F)F)C[C@@H]1C [Example 109]")
"≤ 5 µM"
>>> result("Nc1ncc(-c2nc(N3CCOCC3)c3nc(NCCO)n(CC4CC4)c3n2)cn1 [Example 30]")
"≤ 5 µM"
>>> result("CS(=O)(=O)N1CCN(c2nc3c(N4CCOCC4)nc(-c4cnc(N)nc4)nc3n2CC2CC2)CC1 [Example 3]")
"≤ 5 µM"
>>> result("CN(C)C(=O)C(=O)N1CCN(c2nc3c(N4CCOCC4)nc(-c4cnc(N)nc4)nc3n2CC(F)(F)F)CC1 [Example 66]")
"≤ 5 µM"

Please look up its GI50: Nc1ncc(-c2nc(N3CCOCC3)c3nc(N4CCN(C(=O)CO)CC4)n(CC(F)(F)F)c3n2)cn1 [Example 67]
≤ 5 µM

Please give the result for Nc1ncc(-c2nc(N3CCOCC3)c3nc(N4CCOCC4)n(CC4CCOC4)c3n2)cn1 (stereo not shown) [Example 23] too.
≤ 5 µM

----------
The entries below come with measured pIC50 values attached.
biological target: PI3Kα (Homo sapiens)
pIC50: −log10 of the molar value.

Study these solved cases before continuing.
>>> result("C[C@@H]1CN(c2nc3c(N4CCOCC4)nc(-c4cnc(N)nc4)nc3n2CC(F)(F)F)C[C@H](C)N1")
"> 8.00"
>>> result("CC(C)Cn1c(N2CCN(C(=O)[C@H](C)O)[C@H](C)C2)nc2c(N3CCOCC3)nc(-c3cnc(N)nc3)nc21")
"7.70 to 8.00"
>>> result("CC(C)Cn1c(N2CCN(C(=O)N(C)C)CC2)nc2c(N3CCOCC3)nc(-c3cnc(N)nc3)nc21")
"7.30 to 7.70"
>>> result("Cc1nc(N)ncc1-c1nc(N2CCOCC2)c2nc(N3CCC(C(N)=O)CC3)n(CC3CC3)c2n1 [Example 47, methanesulfonate]")
"7.70 to 8.00"
>>> result("C[C@H]1CN(c2nc3c(N4CCOCC4)nc(-c4cnc(N)nc4)nc3n2CC(F)(F)F)CCN1S(C)(=O)=O")
"> 8.00"
>>> result("C[C@@H]1CN(c2nc3c(N4CCOCC4)nc(-c4cnc(N)nc4)nc3n2CC2CC2)C[C@H](C)N1S(C)(=O)=O")
"7.70 to 8.00"

# next compound below
Recall the recorded pIC50 for CC(=O)N1CCN(c2nc3c(N4CCOCC4)nc(-c4cnc(N)nc4)nc3n2CC(C)C)CC1 with PI3Kα (Homo sapiens) and state it.
7.70 to 8.00

----------
This document collects IC50 values reported for PI3Kα (Homo sapiens).

Study these solved cases before continuing.
>>> result("CNc1ncc(-c2nc(N3CCOCC3)c3nc(N4CCN(S(C)(=O)=O)CC4)n(CC4CC4)c3n2)c(C)n1")
"10 to 20 nM"
>>> result("CN(C)CCNc1nc2c(N3CCOCC3)nc(-c3cnc(N)nc3)nc2n1CC1CC1")
"10 to 20 nM"

Please look up its IC50: C[C@@H](O)C(=O)N1CCN(c2nc3c(N4CCOCC4)nc(-c4cnc(N)nc4)nc3n2CC2CC2)C[C@@H]1C
10 to 20 nM

----------
pIC50: −log10 of the molar value.
This document collects pIC50 values reported for human mTOR (His-tagged mTOR (1362C)) (Homo sapiens, UniProt P42345).

>>> result("CN(C)CC(=O)N1CCN(c2nc3c(N4CCOCC4)nc(-c4cnc(N)nc4)nc3n2CC2CC2)CC1 [Example 40]")
"6.30 to 7.00"

Please look up its pIC50: C[C@H](O)C(=O)N1CCN(c2nc3c(N4CCOCC4)nc(-c4cnc(N)nc4)nc3n2CC2CC2)CC1 [Example 88]
7.00 to 7.52

Please give the result for C[C@@H]1CN(c2nc3c(N4CCOCC4)nc(-c4cnc(N)nc4)nc3n2CC(F)(F)F)C[C@H](C)N1 [Example 14] too.
7.52 to 8.00

Please give the result for C[C@H]1CN(c2nc3c(N4CCOCC4)nc(-c4cnc(N)nc4)nc3n2CC(F)(F)F)CCN1C(=O)CO [Example 125] too.
> 8.00

Please give the result for CC(C)Cn1c(N2CCN(C=O)[C@@H](C)C2)nc2c(N3CCOCC3)nc(-c3cnc(N)nc3)nc21 [Example 102] too.
> 8.00

Please give the result for CC(C)Cn1c(N2CCN(C(=O)C[C@H](C)O)[C@@H](C)C2)nc2c(N3CCOCC3)nc(-c3cnc(N)nc3)nc21 [Example 85] too.
> 8.00

----------
The entries below come with measured IC50 values attached.
target: human mTOR (His-tagged mTOR (1362C)) (Homo sapiens, UniProt P42345); construct: the 1362 to 2549 amino acid portion on the C terminus side of human mTOR; His tag (N); made in house; experiment: mTOR kinase activity inhibition assay; format: biochemical; conditions: HTRF, read-out: IC50 against mTOR
Sequence (P42345 1362-2549): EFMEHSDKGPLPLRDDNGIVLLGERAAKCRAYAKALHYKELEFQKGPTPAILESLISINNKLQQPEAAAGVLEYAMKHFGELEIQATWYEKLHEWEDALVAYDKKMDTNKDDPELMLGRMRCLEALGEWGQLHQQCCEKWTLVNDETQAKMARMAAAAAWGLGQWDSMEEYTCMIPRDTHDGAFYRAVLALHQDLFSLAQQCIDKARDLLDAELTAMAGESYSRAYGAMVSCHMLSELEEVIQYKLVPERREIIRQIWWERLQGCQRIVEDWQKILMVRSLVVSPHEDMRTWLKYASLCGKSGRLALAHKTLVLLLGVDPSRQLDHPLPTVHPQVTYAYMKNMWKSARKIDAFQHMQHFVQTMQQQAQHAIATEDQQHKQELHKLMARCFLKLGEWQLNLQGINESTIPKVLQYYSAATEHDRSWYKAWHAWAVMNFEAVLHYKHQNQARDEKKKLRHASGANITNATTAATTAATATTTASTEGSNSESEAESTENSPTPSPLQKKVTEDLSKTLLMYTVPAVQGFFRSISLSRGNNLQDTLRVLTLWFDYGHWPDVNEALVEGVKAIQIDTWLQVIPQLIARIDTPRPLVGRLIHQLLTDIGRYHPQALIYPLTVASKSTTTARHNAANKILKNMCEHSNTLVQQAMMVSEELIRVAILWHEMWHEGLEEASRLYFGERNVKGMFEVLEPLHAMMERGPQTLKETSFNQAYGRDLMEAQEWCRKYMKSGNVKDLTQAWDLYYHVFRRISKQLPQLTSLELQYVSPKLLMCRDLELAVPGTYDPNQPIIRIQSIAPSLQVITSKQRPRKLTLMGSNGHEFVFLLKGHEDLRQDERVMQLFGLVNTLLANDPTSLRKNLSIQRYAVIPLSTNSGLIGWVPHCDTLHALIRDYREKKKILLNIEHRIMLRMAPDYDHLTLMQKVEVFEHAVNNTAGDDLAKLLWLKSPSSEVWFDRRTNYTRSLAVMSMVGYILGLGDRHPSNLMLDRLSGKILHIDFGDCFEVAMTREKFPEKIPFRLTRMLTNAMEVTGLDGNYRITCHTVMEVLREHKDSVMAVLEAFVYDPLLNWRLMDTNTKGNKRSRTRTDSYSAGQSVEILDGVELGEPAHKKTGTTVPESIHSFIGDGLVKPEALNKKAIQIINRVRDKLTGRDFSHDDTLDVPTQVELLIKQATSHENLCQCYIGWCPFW

Study these solved cases before continuing.
>>> result("CC(=O)N1CCN(c2nc3c(N4CCOCC4)nc(-c4cnc(N)nc4)nc3n2CC(F)(F)F)C[C@H]1C [Example 60]")
"< 10 nM"
>>> result("C[C@@H]1CN(c2nc3c(N4CCOCC4)nc(-c4cnc(N)nc4)nc3n2CC(F)(F)F)C[C@H](C)N1C=O [Example 116]")
"< 10 nM"

# next molecule below
Please look up its IC50: CS(=O)(=O)N1CCN(c2nc3c(N4CCOCC4)nc(-c4cnc(N)nc4)nc3n2CC(F)F)CC1 [Example 64]
< 10 nM

----------
tested on: Akt (threonine 308) phosphorylation in AN3CA tumor; assay: Akt phosphorylation inhibition assay in xenograft; type: in vivo, female nude mouse; settings: Mus musculus, AN3-CA, oral, 6 hr after dosing
The entries below come with measured inhibition at 10 mg/kg values attached.

Study these solved cases before continuing.
>>> result("CC(=O)N1CCN(c2nc3c(N4CCOCC4)nc(-c4cnc(N)nc4)nc3n2CC(F)(F)F)CC12CC2")
"30 to 60%"
>>> result("Nc1ncc(-c2nc(N3CCOCC3)c3nc(N4CCN(C=O)CC4)n(CC(F)(F)F)c3n2)cn1")
"> 60%"
>>> result("CC(=O)C(=O)N1CCN(c2nc3c(N4CCOCC4)nc(-c4cnc(N)nc4)nc3n2CC(F)(F)F)CC1")
"30 to 60%"
>>> result("CC(C)Cn1c(N2CCN(C=O)[C@@H](C)C2)nc2c(N3CCOCC3)nc(-c3cnc(N)nc3)nc21")
"> 60%"

Please look up its inhibition at 10 mg/kg: CS(=O)(=O)C1CCN(c2nc3c(N4CCOCC4)nc(-c4cnc(N)nc4)nc3n2CC(F)(F)F)CC1
30 to 60%

Please give the result for CS(=O)(=O)N1CCN(c2nc3c(N4CCOCC4)nc(-c4cnc(N)nc4)nc3n2CC(F)(F)F)CC1 too.
> 60%

Please give the result for C[C@@H]1CN(c2nc3c(N4CCOCC4)nc(-c4cnc(N)nc4)nc3n2CC(F)(F)F)C[C@H](C)N1C=O too.
> 60%

Please give the result for CC[C@@H]1CN(c2nc3c(N4CCOCC4)nc(-c4cnc(N)nc4)nc3n2CC(F)(F)F)CCN1C(=O)[C@H](C)O too.
> 60%

Please give the result for C[C@H](O)C(=O)N1CCN(c2nc3c(N4CCOCC4)nc(-c4cnc(N)nc4)nc3n2CC(F)(F)F)CC1 too.
> 60%

Please give the result for C[C@H]1CN(c2nc3c(N4CCOCC4)nc(-c4cnc(N)nc4)nc3n2CC(F)(F)F)CCN1S(C)(=O)=O too.
30 to 60%
